FYI, the data here is from PubChem BioAssay AID540333.

# assay: antivirals protecting cells from dengue CPE – CPE readout, HTS (AID 540333)
# condition.notes: Dengue virus CPE inhibition in host cells, at 20 µM
About 320 (3.2%) of roughly 10,000 compounds were called active. Rule as the data show it: active = CPE inhibition mostly above about 9.1% (no sharp cut-off); inactive = mostly below about 7.2%. What follows is part of a selection rich in actives, with near analogues and random picks from the rest.
Possible outcomes: active, inactive

molecule=CC1=CC(C)(C)N(C(=O)CSc2nnc(N)s2)c2ccccc21 category_label=inactive
molecule=O=C(CSc1nc2ccccc2n1S(=O)(=O)c1cccc([N+](=O)[O-])c1)NCc1cccs1 category_label=inactive
molecule="O=S1(=O)CCC(NC(=S)N2CCCCC2)C1 (stereo unspecified)" category_label=inactive
molecule="COc1ccccc1NC(=O)C1=C(C)NC2=C(C(=O)CC(c3ccc(OC)c(OC)c3)C2)C1c1coc2ccccc2c1=O (stereo unspecified)" category_label=inactive
molecule=O=C(N=C1c2ccccc2CN1c1ccccc1)c1cccc([N+](=O)[O-])c1 category_label=inactive
molecule=Cc1ccc(-n2c(C)cc(/C=N\NC(=O)CC(=O)NC(C)C)c2C)cc1 category_label=inactive
molecule=COc1ccc2[nH]c(O)c(N=NC(=N)N)c2c1 category_label=inactive
molecule=Cc1ccc(NC(=O)COC(=O)C2(c3ccc(Cl)cc3)CCCC2)cc1 category_label=active
molecule=Cc1ccc(-c2csc3nc(SCC(N)=O)n(Cc4ccccc4)c(=O)c23)cc1 category_label=active
molecule=CC(C)c1ccc(NC(=S)NCCc2c[nH]c3ccccc23)cc1 category_label=inactive
molecule=COC(=O)C1=C(NC(=O)COc2ccc3ccccc3c2)CCS1 category_label=inactive
molecule=CCCCOC(=O)/C=C/c1ccc(OC(=O)OC)c(OC(=O)OC)c1 category_label=inactive
molecule=CN(Cc1ccccc1)c1nc(CN2CCOCC2)nc2scc(-c3ccccc3)c12 category_label=inactive
molecule=CC(C)(C)OC(=O)C[C@H]1C/C=C\C[C@@H](CC(=O)N(CCO)Cc2ccccc2)C(=O)N[C@@H](c2ccccc2)COC1=O category_label=inactive
molecule=CC(=O)Nc1ccc(NC(=O)COC(=O)C2(c3ccc(Cl)cc3)CCCC2)cc1 category_label=inactive
molecule=CC1=CN2C(=N)/C(=C/c3ccc(Sc4ccc(C)cc4)o3)C(=O)N=C2S1 category_label=inactive
molecule="O=C1C2C(c3ccccc3)=NN(c3ccccc3)C2C(=O)N1c1ccccc1 (stereo unspecified)" category_label=inactive
molecule=COC(=O)Cc1ccc(NC(=S)N2CCN(c3cccc(O)c3)CC2)cc1 category_label=inactive
molecule=Cc1cccc(C)c1-n1c(C)cc(/C=N\NC(=O)CC(=O)NC2CCCCC2)c1C category_label=inactive
molecule="COc1cccc(N2C(C(C)=O)=NN(c3ccccc3)C2c2ccc(N3CCOCC3)cc2)c1 (stereo unspecified)" category_label=inactive
molecule="O=C(c1ccc(COc2ccc(Br)cc2)o1)N1N=C(C(F)F)CC1(O)C(F)F (stereo unspecified)" category_label=inactive
molecule="Cc1ccc(C)c2[nH]c(=O)c(C(c3nnnn3C(C)(C)C)N3CC=C(c4ccc(F)cc4)CC3)cc12 (stereo unspecified)" category_label=active
molecule=C=CCn1c(SCC(=O)c2[nH]c(C)c(C(=O)OCC)c2C)nc2scc(-c3ccc(OC)cc3)c2c1=O category_label=inactive
molecule=CCn1c(SCc2nc3scc(-c4ccccc4)c3c(=O)[nH]2)nnc1-c1cccs1 category_label=inactive
molecule="COc1ccc(/C(O)=C2/C(=O)C(=O)N(CCCN(C)C)C2c2cccc(Cl)c2)cc1OC (stereo unspecified)" category_label=inactive
molecule=Cc1ccc(-n2c(SCC(N)=O)nc(O)cc2=O)cc1 category_label=inactive
molecule=COc1ccccc1[C@@H]1C(c2cccc(Cl)c2)=NN(c2ccccc2)[C@H]1C(=O)N1CCOC1=O category_label=active
molecule=COc1ccc(C(=O)n2cc(C(=O)c3cc(C)ccc3O)cn2)cc1OC category_label=active
molecule=CC(C)c1nc(C#N)c(N2CCOCC2)o1 category_label=inactive
molecule=NNc1nc(-c2ccccc2)nc2sc3c(c12)CCCC3 category_label=inactive
molecule=CCCOC(=O)c1ccc(NC(=O)C(CC)CC)cc1 category_label=inactive
molecule="COc1cc(C(=O)NCC(c2cccs2)N(C)C)cc(Cl)c1OC(C)C (stereo unspecified)" category_label=inactive
molecule="Cc1nc2sc(C(c3ccc(F)cc3)N3CCN(C(=O)c4ccco4)CC3)c(O)n2n1 (stereo unspecified)" category_label=inactive
molecule=COc1ccc(C(=O)N[C@H](C(=O)OCC(=O)NC(=O)c2cccn2C)C(C)C)cc1 category_label=inactive
molecule=CCOc1cccc(OCCOCCN(C)C)c1 category_label=inactive
molecule="COC(C(=O)Nc1ccc(Cl)cc1C)c1ccccc1 (stereo unspecified)" category_label=inactive
molecule=Cc1ccc(S(=O)(=O)N2CCC(=O)N(CCOCc3ccccc3)CC2)cc1 category_label=inactive
molecule="COc1ccc(C2CC(=O)C3=C(C2)Nc2ccccc2NC3c2coc3ccccc3c2=O)cc1OC (stereo unspecified)" category_label=active
molecule=Cc1cc(/C=N\NC(=O)CC(=O)NC2CCCCC2)c(C)n1-c1cccc(Cl)c1Cl category_label=active
molecule=C/C(=N\NC(=O)CN(c1ccccc1Br)S(C)(=O)=O)c1ccc2c(c1)OCCO2 category_label=inactive
molecule=COc1cc(C(=O)NC(=S)N(CCc2ccccc2)CCc2ccccc2)cc(OC)c1OC category_label=inactive
